These entries and their values trace back to ChEMBL document CHEMBL1201862.

system: UACC-257; assay: NCI tumour cell line growth inhibition, 48 h
Calls of active or inactive are those of the source. Rule as the data show it: active = GI50 up to about 1.1 µM and inactive = higher.
Parameter measured: GI50

CCOC(=O)/C(C[C@H]1OC(C)(C)O[C@@H]1[C@H]1COC(C)(C)O1)=N/O	> 100 µM (inactive)

Request: API: value(readout= GI50, system= UACC-257, query= COC(=O)C1(C)CCc2c(ccc3ccccc23)C1=O (centres undefined) )
Response: 24.5 µM (inactive)

Request: API: value(readout= GI50, system= UACC-257, query= COc1nc(C#CCCCC#N)nc(OC)n1 )
Response: 18.9 µM (inactive)

Request: API: value(readout= GI50, system= UACC-257, query= O=C1OC(c2ccc(Cl)c3ccccc23)c2ccccc21 (centres undefined) )
Response: > 100 µM (inactive)
